- experimental.system: rabbit platelets (Oryctolagus cuniculus, UniProt G1TEI7)
- Sequence (G1TEI7 1-342): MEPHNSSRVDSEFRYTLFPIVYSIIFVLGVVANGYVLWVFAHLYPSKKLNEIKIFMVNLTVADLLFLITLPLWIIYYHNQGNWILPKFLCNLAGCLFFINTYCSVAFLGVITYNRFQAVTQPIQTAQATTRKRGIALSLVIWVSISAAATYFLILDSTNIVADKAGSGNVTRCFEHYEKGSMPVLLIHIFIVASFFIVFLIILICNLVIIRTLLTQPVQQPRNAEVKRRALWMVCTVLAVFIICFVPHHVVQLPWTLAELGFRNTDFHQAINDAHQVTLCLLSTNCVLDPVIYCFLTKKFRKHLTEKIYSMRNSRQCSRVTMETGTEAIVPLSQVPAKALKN
- assay.text: in vitro platelet agglutination inhibition test (PAF-induced)
- Type: cell-based
- measurement.parameters: rabbit platelet-rich plasma, PAF final concentration 10 ng/ml, 37°C; read-out: PAF-Induced Platelet Aggregation IC50 (converted)

| compound | IC50 (µM) |
| --- | --- |
| Cc1nnc2n1-c1ccccc1N(CCCN1CCC(=C(c3ccccc3)c3ccc(C(F)(F)F)cc3)CC1)C2 [Compound 151] | 1.4 |
| Cc1nnc2n1-c1ccccc1N(CCCN1CCN(C(c3ccccc3)c3ccc(Cl)cc3)CC1)CC2 (centres unmarked) [Compound 214] | 6.22 |
| Cc1nnc2n1-c1ccccc1N(CCCN1CCC(C(O)(c3ccc(F)cc3)c3ccc(F)cc3)CC1)C2 [Compound 75] | 0.309 |
| Cc1nnc2n1-c1ccccc1N(CCCN1CCC(=C(c3ccco3)c3ccco3)CC1)C2 [Compound 161] | 1.19 |
| Cc1nnc2n1-c1ccccc1N(CCCN1CCC(=C(c3cccc(Cl)c3)c3cccc(Cl)c3)CC1)C2 [Compound 155] | 2.2 |
| Cc1nnc2n1-c1ccccc1N(CCCN1CCC(=C(c3ccccc3)c3ccccc3)C1)C2 [Compound 85] | 3.03 |
| Cc1nnc2n(CCCN3CCC(c4c[nH]c5ccc(F)cc45)CC3)c3ccccc3n12 [Compound 196] | 0.0302 |
| Cc1nnc2n1-c1ccccc1N(CCCN1CCC(n3c(=O)[nH]c4ccccc43)CC1)C2 [Compound 81] | 1.53 |
